Kindly supply the reported protein stability index values for the records listed here.
B1: ACBD3 (parent)
chain: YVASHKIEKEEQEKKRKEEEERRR

Variants of: B1
Experiment: protein stability index of a GFP-peptide fusion (GPS, HEK-293T) (PSI 1-6); higher = more stable;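 note: lentivirally expressed fusions sorted by FACS into six bins by GFP to DsRed ratio, PSI derived from sequencing read proportions per bin multiplied by bin number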
Conditions: c terminus: a fixed tail appended
# answer = number (no unit)

Notebook: Y1W , protein stability index read as 5.65

Notebook: R22F , protein stability index read as 2.5

Notebook: Y1N , protein stability index read as 5.77

Notebook: E8Q , protein stability index read as 2.14

Notebook: I7R , protein stability index read as 2.67

Notebook: K17C , protein stability index read as 2.41

Notebook: R16G , protein stability index read as 2.88

Notebook: V2A , protein stability index read as 4.73

Notebook: K14M , protein stability index read as 2.62

Notebook: E8V , protein stability index read as 2.1

Notebook: R24T , protein stability index read as 2.27

Notebook: Q12S , protein stability index read as 1.82

Notebook: E18I , protein stability index read as 2.42

Notebook: K9R , protein stability index read as 1.84

Notebook: R24Q , protein stability index read as 3.12

Notebook: E18A , protein stability index read as 3.07

Notebook: K14V , protein stability index read as 3.09

Notebook: E19N , protein stability index read as 1.94

Notebook: Q12V , protein stability index read as 2.02

Notebook: K15H , protein stability index read as 3.06

Notebook: E18N , protein stability index read as 1.85

Notebook: K9M , protein stability index read as 2.8

Notebook: Y1G , protein stability index read as 4.73

Notebook: R24A , protein stability index read as 2.94

Notebook: R22V , protein stability index read as 2.89

Notebook: E19V , protein stability index read as 2.59

Notebook: K6E , protein stability index read as 3.67

Notebook: A3L , protein stability index read as 3.09

Notebook: I7C , protein stability index read as 3.86

Notebook: V2I , protein stability index read as 4.51

Notebook: E13W , protein stability index read as 2.81

Notebook: H5S , protein stability index read as 3.07

Notebook: Q12E , protein stability index read as 3.63

Notebook: V2N , protein stability index read as 5.04

Notebook: E18Y , protein stability index read as 1.94

Notebook: E19F , protein stability index read as 2.68

Notebook: E21H , protein stability index read as 3.13

Notebook: E11V , protein stability index read as 1.98

Notebook: I7L , protein stability index read as 2.37

Notebook: K17Q , protein stability index read as 2.07

Notebook: H5I , protein stability index read as 3.02

Notebook: K15N , protein stability index read as 2.62

Notebook: R22Y , protein stability index read as 2.87

Notebook: I7Q , protein stability index read as 2.25

Notebook: E19A , protein stability index read as 2.6

Notebook: K15Q , protein stability index read as 3.15

Notebook: R24S , protein stability index read as 2.7

Notebook: R22N , protein stability index read as 3.14

Notebook: E19Q , protein stability index read as 2.61

Notebook: A3F , protein stability index read as 3.72

Notebook: K6H , protein stability index read as 3.21

Notebook: I7V , protein stability index read as 2.43

Notebook: S4H , protein stability index read as 2.62

Notebook: R16N , protein stability index read as 2.63

Notebook: K17G , protein stability index read as 3.79

Notebook: R23M , protein stability index read as 2.24

Notebook: E13D , protein stability index read as 2.9

Notebook: Q12A , protein stability index read as 3.33

Notebook: E11K , protein stability index read as 1.71

Notebook: E19D , protein stability index read as 2.74

Notebook: E13C , protein stability index read as 2.66

Notebook: V2W , protein stability index read as 4.93

Notebook: Q12D , protein stability index read as 3.76

Notebook: R23G , protein stability index read as 3.03

Notebook: V2H , protein stability index read as 4.14

Notebook: E10F , protein stability index read as 1.76

Notebook: K17A , protein stability index read as 2.88

Notebook: Y1T , protein stability index read as 5.43

Notebook: K9T , protein stability index read as 2.42

Notebook: R16C , protein stability index read as 2.67

Notebook: E10N , protein stability index read as 2.79

Notebook: S4F , protein stability index read as 2.07

Notebook: Y1E , protein stability index read as 5.83

Notebook: R16L , protein stability index read as 3

Notebook: E13G , protein stability index read as 2.15

Notebook: Y1P , protein stability index read as 5.43

Notebook: I7G , protein stability index read as 3.13

Notebook: K15F , protein stability index read as 2.06

Notebook: E10L , protein stability index read as 2.95

Notebook: Q12H , protein stability index read as 2.27

Notebook: K6C , protein stability index read as 2.98

Notebook: R24E , protein stability index read as 2.19

Notebook: H5Q , protein stability index read as 2.7

Notebook: E8F , protein stability index read as 1.12

Notebook: R22G , protein stability index read as 2.68

Notebook: K15Y , protein stability index read as 2.16

Notebook: K6M , protein stability index read as 3.21

Notebook: E20T , protein stability index read as 2.57

Notebook: I7T , protein stability index read as 3.09

Notebook: E13Y , protein stability index read as 2.41

Notebook: H5R , protein stability index read as 2.46
